Tested on: MCF7
assay.text: Cytotoxicity against human MCF7 cells after 96 hrs by SRB assay
Type: functional, cell-based
stated.conditions: MCF7, 96 h
As shown below, each of these molecules has a reported EC50 value.
observed.property: EC50 (nM)

>>> recorded_value("CCN(CC)c1ccc2c(-c3ccccc3C(=O)O[C@H]3CC[C@]4(C)[C@H]5CC=C6[C@@H]7CC(C)(C)CC[C@]7(C(=O)NCc7ccccc7)CC[C@@]6(C)[C@]5(C)CC[C@H]4C3(C)C)c3ccc(=[N+](CC)CC)cc-3oc2c1")
360
>>> recorded_value("CCN(CC)c1ccc2c(-c3ccccc3C(=O)O[C@H]3CC[C@]4(C)[C@H]5C(=O)C=C6[C@@H]7C[C@@](C)(C(=O)OCc8ccccc8)CC[C@]7(C)CC[C@@]6(C)[C@]5(C)CC[C@H]4C3(C)C)c3ccc(=[N+](CC)CC)cc-3oc2c1")
1470

These data points were gathered from ChEMBL document CHEMBL4152227.
